Value source: ChEMBL document CHEMBL4715829

The following molecules are shown together with reported MIC values.
Test system: Enterococcus faecalis
Test: Antibacterial activity against Enterococcus faecalis ATCC 29212 assessed as reduction in bacterial growth incubated for 18 hrs by broth microdilution assay
Type: functional

- structure-smiles: "CO[C@H]1/C=C/O[C@@]2(C)Oc3c(C)c(O)c4c(O)c(c(/C=N/N5CCN(Cc6cn(CCCCCCO[C@@H]7[C@@H](O[C@H]8O[C@H](CO)[C@@H](O)[C@H](N)[C@H]8O)[C@H](N)C[C@H](N)[C@H]7O[C@H]7O[C@H](CN)[C@@H](O)C[C@H]7N)nn6)CC5)c(O)c4c3C2=O)NC(=O)/C(C)=C\\C=C\\[C@H](C)[C@H](O)[C@@H](C)[C@@H](O)[C@@H](C)[C@H](OC(C)=O)[C@@H]1C.Cl.Cl.Cl.Cl.Cl"
  measured-on: "Enterococcus faecalis"
  MIC: "> 32 µg/mL"
- structure-smiles: "CO[C@H]1/C=C/O[C@@]2(C)Oc3c(C)c(O)c4c(O)c(c(/C=N/N5CCN(Cc6cn(CCCCO[C@@H]7[C@@H](O[C@H]8O[C@H](CO)[C@@H](O)[C@H](N)[C@H]8O)[C@H](N)C[C@H](N)[C@H]7O[C@H]7O[C@H](CN)[C@@H](O)C[C@H]7N)nn6)CC5)c(O)c4c3C2=O)NC(=O)/C(C)=C\\C=C\\[C@H](C)[C@H](O)[C@@H](C)[C@@H](O)[C@@H](C)[C@H](OC(C)=O)[C@@H]1C.O=C(O)C(F)(F)F.O=C(O)C(F)(F)F.O=C(O)C(F)(F)F.O=C(O)C(F)(F)F.O=C(O)C(F)(F)F"
  measured-on: "Enterococcus faecalis"
  MIC: "> 32 µg/mL"
- structure-smiles: "CO[C@H]1/C=C/O[C@@]2(C)Oc3c(C)c(O)c4c(O)c(c(/C=N/N5CCN(Cc6cn(CCCCCCCCCCCCO[C@@H]7[C@@H](O[C@H]8O[C@H](CO)[C@@H](O)[C@H](N)[C@H]8O)[C@H](N)C[C@H](N)[C@H]7O[C@H]7O[C@H](CN)[C@@H](O)C[C@H]7N)nn6)CC5)c(O)c4c3C2=O)NC(=O)/C(C)=C\\C=C\\[C@H](C)[C@H](O)[C@@H](C)[C@@H](O)[C@@H](C)[C@H](OC(C)=O)[C@@H]1C.O=C(O)C(F)(F)F.O=C(O)C(F)(F)F.O=C(O)C(F)(F)F.O=C(O)C(F)(F)F.O=C(O)C(F)(F)F"
  measured-on: "Enterococcus faecalis"
  MIC: "> 32 µg/mL"
